experimental-target: full length SGK1 (Homo sapiens, UniProt O00141)
Construct: 125 μM full length SGK1 (Life Technologies Part #PR7358A); purchased Life Technologies PR7358A
Sequence (O00141 whole entry): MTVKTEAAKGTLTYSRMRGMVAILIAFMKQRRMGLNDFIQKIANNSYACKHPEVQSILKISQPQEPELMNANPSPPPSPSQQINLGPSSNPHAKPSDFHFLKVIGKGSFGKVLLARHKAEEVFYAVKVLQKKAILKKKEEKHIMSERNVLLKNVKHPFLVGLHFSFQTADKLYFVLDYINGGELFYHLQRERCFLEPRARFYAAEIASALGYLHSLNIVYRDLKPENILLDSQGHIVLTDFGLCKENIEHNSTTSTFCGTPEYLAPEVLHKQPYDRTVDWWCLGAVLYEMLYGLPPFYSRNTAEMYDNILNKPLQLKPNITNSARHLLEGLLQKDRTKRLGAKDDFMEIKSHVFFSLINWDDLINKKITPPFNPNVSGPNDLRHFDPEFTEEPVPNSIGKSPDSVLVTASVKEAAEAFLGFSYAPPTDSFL
protocol-notes: SGK1 inhibition Assay A (Caliper LabChip electrophoretic separation of fluorescent peptide substrate and phosphorylated product)
Assay type: biochemical
condition-label: Assay A; 20 μM ATP, 40 min incubation; read-out: SGK1 IC50
For each record, write down the corresponding log10 IC50.
Friendly reminder: values = log10 of IC50, unit nM.

// query log10 IC50 value for entry COC(=O)N1CCC(c2cc(N3CCC[C@@H](NC(=O)c4sc5ccccc5c4OC4CN(C(=O)OC(C)(C)C)C4)C3)c3c(N)ncnn23)C1 (stereo partly drawn)
1.83

Report log10 IC50 for CC(=O)N1CC=C(c2cc(N3CCC[C@@H](NC(=O)c4nc(N5CCN(C)CC5)ccc4F)C3)c3c(N)ncnn23)C1 please.
0.90

I would be grateful if you could share the reported log10 IC50 for Nc1ncnn2c(-c3ccnc(F)c3)cc(N3CCC[C@@H](NC(=O)c4ccc(Cl)s4)C3)c12 .
1.28

Please look up its log10 IC50: Nc1ncnn2c(-c3cncnc3)cc(N3CCC[C@@H](NC(=O)c4sc5ccc(F)cc5c4OC4CCNCC4)C3)c12
2.21

Name the reported log10 IC50 value associated with the compound COC(=O)N1CC=C(c2cc(N3CCC[C@@H](NC(=O)c4sc(Cl)cc4OC4CCN(C(C)=O)CC4)C3)c3c(N)ncnn23)C1
0.48

Which log10 IC50 is reported for this compound? Nc1ncnn2c(-c3ccc(NS(=O)(=O)c4cc(Cl)ccc4F)cc3)cc(N3CCC[C@@H](NC(=O)c4ccc(Cl)s4)C3)c12
1.90

----------
experimental-target: full length SGK1 (Homo sapiens, UniProt O00141)
Construct: 125 μM full length SGK1 (Life Technologies Part #PR7358A); purchased Life Technologies PR7358A
protocol-notes: SGK1 inhibition Assay A (Caliper LabChip electrophoretic separation of fluorescent peptide substrate and phosphorylated product)
Assay type: biochemical
condition-label: Assay A; 20 μM ATP, 40 min incubation; read-out: SGK1 IC50
Where a name gives a salt, the structure may show the parent alone.
Quick rule for you: IC50 under 10 nM gets Fulfilled, anything else gets Not fulfilled.

Take the compound CC1CN(CCOc2cc(Cl)sc2C(=O)N[C@@H]2CCCN(c3cc(-c4ccnc(C(F)F)c4)n4ncnc(N)c34)C2)CCO1 (stereo partly shown) and say whether its IC50 is less than 10 nM.
Fulfilled

Answer whether the compound CS(=O)(=O)c1ccc(-c2cc(N3CCC[C@@H](NC(=O)C4CCCCC4)C3)c3c(N)ncnn23)cc1 has IC50 strictly less than 10 nM
Not fulfilled

Given the entry CC(=O)N1CC=C(c2cc(N3CCCC(NC(=O)c4sc(Cl)cc4OC4CC5CC4CN5C(C)C)C3)c3c(N)ncnn23)C1 (single isomer, unassigned) [Example 611] , would its reported IC50 be below 10 nM?
Fulfilled

Problem: For the compound CC(=O)N1CC=C(c2cc(N3CCC[C@@H](NC(=O)c4sc(Cl)cc4OC4CN(C)C4)C3)c3c(N)ncnn23)C1 , is IC50 under 10 nM?
Fulfilled

Given Nc1ncnn2c(C3=CCN(C(=O)C4(F)CC4)C3)cc(N3CCC[C@@H](NC(=O)c4sc(Cl)cc4OCCN4CCOCC4)C3)c12 , is recorded IC50 strictly lower than 10 nM?
Not fulfilled

Quick check: does CC(=O)N1CC=C(c2cc(N3CCC[C@@H](NC(=O)c4sc(Cl)cc4OCCN4CCC(C)(O)CC4)C3)c3c(N)ncnn23)C1 have IC50 under 10 nM?
Fulfilled

Given the entry CC(=O)N1CC=C(c2cc(N3CCCC(NC(=O)c4sc(Cl)cc4OC4CCNC(C)C4)C3)c3c(N)ncnn23)C1 (single isomer, unassigned) [Example 622] , would its reported IC50 be below 10 nM?
Fulfilled

Please determine if CC(=O)N1CC=C(c2cc(N3CCC[C@@H](NC(=O)c4sc(Cl)cc4OC4CCNCC4F)C3)c3c(N)ncnn23)C1 (stereo partly shown) [Example 601] is below 10 nM in terms of IC50.
Fulfilled

Given the entry CS(=O)(=O)c1ccc(-c2cc(N3CCC[C@@H](NC(=O)c4sccc4F)C3)c3c(N)ncnn23)cc1 , would its reported IC50 be below 10 nM?
Not fulfilled

Determine if CS(=O)(=O)c1ccc(-c2cc(N3CCC[C@@H](NC(=O)c4cnc[nH]4)C3)c3c(N)ncnn23)cc1 [Example 37, TFA] shows IC50 strictly lower than 10 nM.
Not fulfilled

For this compound, is IC50 lower than 10 nM? N=c1ccc(-c2cc(N3CCC[C@@H](NC(=O)c4ccc(Cl)s4)C3)c3c(N)ncnn23)cn1C(F)F
Not fulfilled

Consider CS(=O)(=O)c1ccc(-c2cc(N3CCC[C@@H](NC(=O)c4cc(Cl)no4)C3)c3c(N)ncnn23)cc1 [Example 74, TFA] . Does its IC50 lie strictly below 10 nM?
Not fulfilled

For CC(C)(C)OC(=O)N1CC=C(c2ccc(C(=O)N[C@@H]3CCCN(c4cc(-c5ccnc(C(F)F)c5)n5ncnc(N)c45)C3)s2)CC1 , is the recorded IC50 below the cut-off of 10 nM?
Not fulfilled

----------
experimental-target: full length SGK1 (Homo sapiens, UniProt O00141)
Construct: 125 μM full length SGK1 (Life Technologies Part #PR7358A); purchased Life Technologies PR7358A
protocol-notes: SGK1 inhibition Assay A (Caliper LabChip electrophoretic separation of fluorescent peptide substrate and phosphorylated product)
Type: biochemical
condition-label: Assay A; 20 μM ATP, 40 min incubation; read-out: SGK1 IC50
Counter-ions that a name gives are not always drawn.
For each record, write down the corresponding IC50.
The reply should contain only the number, in nM.

Any idea what IC50 was measured for CS(=O)(=O)c1ccc(-c2cc(N3CCC[C@@H](NC(=O)c4cc5c(s4)CCCC5)C3)c3c(N)ncnn23)cc1 ?
49

What does the record list as IC50 for Nc1ncnn2c(C#Cc3ccncc3)cc(N3CCC[C@@H](NC(=O)c4ccc(Cl)s4)C3)c12 [Example 695, TFA salt] ?
242

Name the reported IC50 value associated with the molecule CS(=O)(=O)c1ccc(-c2cc(N3CCC[C@@H](NC(=O)c4ccsn4)C3)c3c(N)ncnn23)cc1
111

Recorded IC50 for CC(=O)N1CC=C(c2cc(N3CCC[C@@H](NC(=O)c4sc(C5CC5)cc4OC4CCN(C5CC5)CC4)C3)c3c(N)ncnn23)C1 , please?
43

Need IC50 of Cn1cnc(C(=O)N[C@@H]2CCCN(c3cc(-c4ccc(S(C)(=O)=O)cc4)n4ncnc(N)c34)C2)c1 , thanks.
307

Tell me the measured IC50 of CS(=O)(=O)c1ccc(-c2cc(N3CCC[C@@H](NC(=O)c4ccn5ccnc5c4)C3)c3c(N)ncnn23)cc1 , please.
596

Consider the molecule CCOC1=C(C(=O)N[C@@H]2CCCN(c3cc(C4=CCN(C(C)=O)C4)n4ncnc(N)c34)C2)CN(CC(F)(F)C(F)(F)F)C1=O and give its measured IC50.
318

----------
experimental-target: full length SGK1 (Homo sapiens, UniProt O00141)
Construct: 125 μM full length SGK1 (Life Technologies Part #PR7358A); purchased Life Technologies PR7358A
protocol-notes: SGK1 inhibition Assay A (Caliper LabChip electrophoretic separation of fluorescent peptide substrate and phosphorylated product)
Format: biochemical
condition-label: Assay A; 20 μM ATP, 40 min incubation; read-out: SGK1 IC50
Counter-ions that a name gives are not always drawn.
For each entry below, report its pIC50 value.
# pIC50: negative log10 of molar concentration; output just the value

pIC50 for COc1ncccc1C(=O)N[C@@H]1CCCN(c2cc(C3=CCN(C(C)=O)C3)n3ncnc(N)c23)C1 ?
7.59

Consider the compound shown here: CC(=O)N1CC=C(c2cc(N3CCC[C@@H](NC(=O)c4ccc5n(c4=O)CCC5)C3)c3c(N)ncnn23)C1 What is its recorded pIC50?
6.11

What value of measured pIC50 is listed for CN(C)CCOc1cc(Cl)sc1C(=O)N[C@@H]1CCCN(c2cc(C3=CCN(C(=O)CC(F)(F)F)C3)n3ncnc(N)c23)C1 [Example 176, TFA] ?
8.40

Which value of pIC50 has been reported for CS(=O)(=O)N1CC=C(c2cc(N3CCC[C@@H](NC(=O)c4ccc(Cl)s4)C3)c3c(N)ncnn23)C1 in the records?
8.70

For CC(=O)N1CC=C(c2cc(N3CCC[C@@H](NC(=O)c4sc(C)nc4OC4CCNCC4)C3)c3c(N)ncnn23)C1 [Example 357E] , what is its reported pIC50?
7.72

Please report the recorded pIC50 for CN(C)CCOc1cc(C(F)F)sc1C(=O)N[C@@H]1CCCN(c2cc(-c3ccc(C(N)=O)nc3)n3ncnc(N)c23)C1 .
7.96

I have this compound here, CS(=O)(=O)c1ccc(-c2cc(N3CCC[C@@H](NC(=O)c4ccccc4F)C3)c3c(N)ncnn23)cc1 , and I need its recorded pIC50.
7.33

State the recorded pIC50 for this entry: CS(=O)(=O)c1ccc(-c2cc(N3CCC[C@@H](NC(=O)c4ccnc(Br)c4)C3)c3c(N)ncnn23)cc1 [Example 86, TFA]
8.05

Param item = Nc1ncnn2c(-c3ccc4c(c3)C(=O)NC4)cc(N3CCC[C@@H](NC(=O)c4ccc(Cl)s4)C3)c12 ; retrieve measured pIC50.
7.17

Bench note: what pIC50 did CN(C)CCOc1cc(Cl)sc1C(=O)N[C@@H]1CCCN(c2cc(-c3cnn(C4CCOC4)c3)n3ncnc(N)c23)C1 (stereo partly drawn) show?
6.04

Could you tell me which pIC50 is on file for CC(=O)N1CC=C(c2cc(N3CCC[C@@H](NC(=O)c4cccc(N5C[C@@H](C)N[C@@H](C)C5)n4)C3)c3c(N)ncnn23)C1 ?
9.00

Endpoint output: pIC50 of CC(=O)N1CC=C(c2cc(N3CCC[C@@H](NC(=O)c4cccc(N5CC(C)(O)C5)n4)C3)c3c(N)ncnn23)C1 . Value?
7.77

// query pIC50 value for entry Nc1ncnn2c(-c3ccc(=O)n(CC(F)F)c3)cc(N3CCC[C@@H](NC(=O)c4cc(-c5ccccc5)n[nH]4)C3)c12
8.70

Request the reported pIC50 associated with Cc1cnc(F)cc1-c1cc(N2CCC[C@@H](NC(=O)c3ccc(Cl)s3)C2)c2c(N)ncnn12
7.48

Consider the compound Nc1ncnn2c(C3=CCN(C(=O)C4CCCOC4)C3)cc(N3CCC[C@@H](NC(=O)c4ccc(Cl)s4)C3)c12 (stereo partly drawn) and give its measured pIC50.
8.15

Reported pIC50, compound Nc1ncnn2c(-c3cn(CCC(=O)O)nn3)cc(N3CCC[C@@H](NC(=O)c4ccc(Cl)s4)C3)c12 : ____
6.92

So what's the measured pIC50 for this one? Cc1nc(C)c(C(=O)N[C@@H]2CCCN(c3cc(-c4ccc(=O)n(CC(C)C)c4)n4ncnc(N)c34)C2)s1
6.88

Item under review: CN1CCN(c2cccc(C(=O)N[C@@H]3CCCN(c4cc(-c5ccc(=O)n(C)c5)n5ncnc(N)c45)C3)n2)CC1 . Reported pIC50?
7.89

# pIC50 lookup, item COc1cc(C)sc1C(=O)N[C@@H]1CCCN(c2cc(-c3ccc(S(C)(=O)=O)cc3)n3ncnc(N)c23)C1
8.10

Suppose we examine the compound CC(=O)N1CC=C(c2cc(N3CCC[C@@H](NC(=O)c4cc(N5CCN(C)CC5)c(C)s4)C3)c3c(N)ncnn23)C1 ; what pIC50 value has been reported?
7.31

I would be grateful if you could share the reported pIC50 for CC(=O)N1CC=C(c2cc(N3CCC[C@@H](NC(=O)c4ccc(S(C)(=O)=O)cc4)C3)c3c(N)ncnn23)C1 .
7.59

I would be grateful if you could share the reported pIC50 for Nc1ncnn2c(-c3ccnc(C(F)(F)F)c3)cc(N3CCC[C@@H](NC(=O)c4ccc(Cl)s4)C3)c12 .
8.15

Sample CC(C)(O)CCOc1cc(Cl)sc1C(=O)N[C@@H]1CCCN(c2cc(-c3ccnc(F)c3)n3ncnc(N)c23)C1 — what was its pIC50?
8.52

Quick one: pIC50 of CS(=O)(=O)c1ccc(-c2cc(N3CCC[C@@H](NC(=O)c4cc(Cl)ns4)C3)c3c(N)ncnn23)cc1 [Example 72, TFA] ?
7.89

Name the recorded pIC50 for CC(=O)N1CC=C(c2cc(N3CCC[C@@H](NC(=O)c4cc(-c5ccccc5)n[nH]4)C3)c3c(N)ncnn23)C1 .
8.22

Dear colleague, I am looking for the recorded pIC50 of the following compound: COC(=O)N1CC=C(c2cc(N3CCC[C@@H](NC(=O)c4sc(Cl)cc4OC4CCN(C5COC5)CC4)C3)c3c(N)ncnn23)C1
8.52

# query: pIC50 of entry COC(=O)N1CC=C(c2cc(N3CCC[C@@H](NC(=O)c4cc5cc(C#N)ccc5[nH]4)C3)c3c(N)ncnn23)C1
7.39
